target: KRAS G12D (Homo sapiens (Human), UniProt P01116, G12D); assay: KRAS G12D LoEnz Biochemical Assay, BODIPY-GDP Exchange TR-FRET (SOS1-mediated nucleotide exchange); conditions: read-out: KRas (G12D) GDP HTRF IC50
Sequence (P01116-2 other isoform, or with tags, fused parts or gaps G12D): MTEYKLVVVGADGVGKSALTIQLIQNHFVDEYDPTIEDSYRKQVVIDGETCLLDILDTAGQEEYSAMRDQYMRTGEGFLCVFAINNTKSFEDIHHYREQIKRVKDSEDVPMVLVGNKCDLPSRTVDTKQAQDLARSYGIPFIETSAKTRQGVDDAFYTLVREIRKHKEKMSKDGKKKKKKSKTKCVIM
Bucketed by reported IC50, buckets being A = under 0.2 nM, B = from 0.2 nM up to 0.5 nM, C = 0.5 nM and over

[ask] Any idea which band C[C@@H]1Oc2nc(-c3cc(N)cc4c3CCC4)c(F)c3nc(OC[C@@]45CCCN4C[C@H](F)C5)nc(c23)N2C[C@H]3CC[C@H](N3)[C@@H]12 is in?
[reply] C

[ask] Category of Cc1c(F)c(N)cc(-c2nc3c4c(nc(OC[C@@]56CCCN5C[C@H](F)C6)nc4c2F)N2CCNC[C@H]2C(C)O3)c1C(F)(F)F (single isomer, unassigned) [235 (isomer 2)] :
[reply] B

New cases:
[ask] State the band of Cc1nc(N)cc(-c2nc3c4c(nc(OCC5(CN6CC7CC(C6)O7)CC5)nc4c2F)N2C[C@H]4CC[C@H](N4)[C@H]2[C@H](C)O3)c1C(F)(F)F
[reply] B

[ask] Returns: class label. Input: C[C@@H]1Oc2nc(-c3cc(N)cc(F)c3C(F)(F)F)c(F)c3nc(OC[C@H]4CC[C@@H]5COC(C)(C)CN45)nc(c23)N2C[C@H]3CC[C@H](N3)[C@@H]12 (relative stereo)
[reply] B

[ask] Form field 'band' for C[C@@H]1Oc2nc(-c3cc(N)nc(C(F)F)c3C(F)(F)F)c(F)c3nc(OC[C@@]45CCCN4C[C@H](F)C5)nc(c23)N2C[C@H]3CC[C@H](N3)[C@@H]12
[reply] B

[ask] Class (by measured IC50) for Cc1c(F)c(N)cc(-c2nc3c4c(nc(OC[C@]5(CN6C[C@H]7C[C@@H]6CO7)CC5(F)F)nc4c2F)N2C[C@H]4CC[C@H](N4)[C@H]2[C@H](C)O3)c1C(F)(F)F [166 b]
[reply] A
